Recorded values, source ChEMBL document CHEMBL5113393.

target: Bromodomain-containing protein 4 (Homo sapiens); experiment: Inhibition of BRD4 BD1 (unknown origin) using FAM-labeled JQ-1 as fluorescent substrate assessed as inhibition constant incubated for 30 mins by competitive fluorescence polarization method
RESULT TYPE: Ki
// unit must come after the numeric part

Please review the entries below; each comes with its answer.
INSERT INTO measurements (smiles_repr, result_type, reported) VALUES
  ('COc1cc(-c2nc(SCc3ccccc3C)[nH]c(=O)c2C#N)cc(OC)c1OC', 'Ki', '830 nM'),
  ('COc1cc(-c2nc(SCc3ccccc3[N+](=O)[O-])[nH]c(=O)c2C#N)cc(OC)c1OC', 'Ki', '790 nM'),
  ('COc1ccc(-c2nc(SCc3ccccc3Cl)n(C)c(=O)c2C#N)cc1OC', 'Ki', '18300 nM'),
  ('COc1cc(-c2nc(SCc3cccc(C)c3)[nH]c(=O)c2C#N)cc(OC)c1OC', 'Ki', '1250 nM');

// query I would be grateful if you could share the reported Ki for `COc1ccc(-c2nc(NCc3ccccc3)[nH]c(=O)c2C#N)cc1OC` .
// result 16300 nM
